assay: chemical genetic growth profiling, strain panel (AID 1159580);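 also: tested at 20 µM; growth read once vehicle control cultures reached saturation at 30 °C; 1 = growth at the plate median or of vehicle wells; lower values mean less growth of the strain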; conditions: S. cerevisiae deletion strains, growth OD, locus YPL153C, strain RAD53, hits give low values
Among all 5,500 compounds or so, about 2,000 (36%) were called active. About 18% were inconclusive and are not listed. This is one part of the list.
Consider the following compounds; for each one, report its normalized growth.
Lab note: jot the number down without any unit.

**Q:** Requested field: normalized growth. Item: `O=C1c2cccc3c(Sc4ccccc4)ccc(c23)C(=O)N1NCCO`
**A:** 0.82

**Q:** Requested field: normalized growth. Item: `N#CSCC(=O)c1ccccc1`
**A:** 0.117

**Q:** Requested field: normalized growth. Item: `OC(COc1ccc(F)cc1)(c1ccc(Cl)cc1)c1ccc(Cl)cc1`
**A:** 0.984

**Q:** Requested field: normalized growth. Item: `O=S(=O)(Oc1ccc(-c2csnn2)cc1)c1ccccc1Cl`
**A:** 0.956

**Q:** Requested field: normalized growth. Item: `CC(C)(C)c1cc(C(=O)Nc2ccc3c(c2)OCO3)n(Cc2ccc(F)cc2)n1`
**A:** 0.923

**Q:** Requested field: normalized growth. Item: `CCOC(=O)/C(C#N)=C(\Nc1ccc(C(=O)OCC)cc1)SC`
**A:** 0.954

**Q:** Requested field: normalized growth. Item: `COC(=O)c1sccc1NS(=O)(=O)c1cc(Cl)cc(Cl)c1`
**A:** 1.01
